Target or system Eukaryotic translation initiation factor 4H (Homo sapiens, UniProt Q15056); recorded quantity pIC50.
Quick note: pIC50 values are minus log10 of concentrations in mol/L.

Examples from the recorded data:
MOLECULE: O=C1N=c2ccccc2=C1NNC(=O)c1cc(-c2cccs2)n[nH]1
SYSTEM: Eukaryotic translation initiation factor 4H (Homo sapiens, UniProt Q15056)
MEASUREMENT KIND: pIC50
NUMERIC VALUE: 4.94
//
MOLECULE: O=C(O)c1ccc(N=NCc2cc3c(cc2[N+](=O)[O-])OCO3)cc1
SYSTEM: Eukaryotic translation initiation factor 4H (Homo sapiens, UniProt Q15056)
MEASUREMENT KIND: pIC50
NUMERIC VALUE: 4.66
//
MOLECULE: COc1cc(C)cc(C(=O)O)c1C1C(=O)C(=O)c2c(O)cccc2C1=O (centres undefined)
SYSTEM: Eukaryotic translation initiation factor 4H (Homo sapiens, UniProt Q15056)
MEASUREMENT KIND: pIC50
NUMERIC VALUE: 5.27
//
MOLECULE: CCn1c(=NC(=O)c2ccc(-n3c(O)ccc3O)cc2)sc2c(OC)ccc(OC)c21
SYSTEM: Eukaryotic translation initiation factor 4H (Homo sapiens, UniProt Q15056)
MEASUREMENT KIND: pIC50
NUMERIC VALUE: 4.83
//
MOLECULE: CC1=NC(=O)NC(c2ccco2)C1C(=O)OC(C)C (centres undefined)
SYSTEM: Eukaryotic translation initiation factor 4H (Homo sapiens, UniProt Q15056)
MEASUREMENT KIND: pIC50
NUMERIC VALUE: 4.46
//
MOLECULE: COc1ccc2c(c1)=C(NNC(=O)Cc1cccs1)C(=O)N=2
SYSTEM: Eukaryotic translation initiation factor 4H (Homo sapiens, UniProt Q15056)
MEASUREMENT KIND: pIC50
NUMERIC VALUE: 4.96
//
MOLECULE: CC1(C)Oc2ccc3ccc(=O)oc3c2C(CN=O)=C1Cl
SYSTEM: Eukaryotic translation initiation factor 4H (Homo sapiens, UniProt Q15056)
MEASUREMENT KIND: pIC50
NUMERIC VALUE: 4.00
//
MOLECULE: CC[N+](C)(CC)CCCC(N=O)C(O)(c1ccccc1)c1ccccc1 (centres undefined)
SYSTEM: Eukaryotic translation initiation factor 4H (Homo sapiens, UniProt Q15056)
MEASUREMENT KIND: pIC50
NUMERIC VALUE: 4.00

# input for lookup
GET pIC50 where system = Eukaryotic translation initiation factor 4H (Homo sapiens, UniProt Q15056) and item = `COc1ccc(CN=Nc2nc(O)c(CC(=O)O)s2)cc1OCc1ccc(Cl)cc1Cl` 4.83
